- assay.explanation: Stat Signaling Pathway (AID 446);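 also: ME-180 cervical cancer cells given 40 pM IL-6 alongside compound; SIE-controlled beta-lactamase reporter measured as 460/530 nm FRET emission ratio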
- conditions.used: ME-180 (cervical carcinoma) SIE beta-lactamase reporter, IL-6 stimulated, 5 h; at 17.2 µM (top of the series)
Inconclusive results are not listed.
Please note: T applies when activity, negative = inhibition is -10% or greater, and F applies otherwise.

compound=c1coc(CNc2ncnc3nc[nH]c23)c1 assigned_class=F
compound=Nc1nc2c(c(=O)[nH]1)N(C=O)[C@H](CNc1ccc(C(=O)N[C@@H](CCC(=O)O)C(=O)O)cc1)CN2 assigned_class=T
compound=CN(C)CC[C@H](c1ccc(Cl)cc1)c1ccccn1 assigned_class=T

Problem: Decide: activity, negative = inhibition of CN1[C@H]2CC(OC(=O)[C@@H](CO)c3ccccc3)C[C@H]1[C@H]1O[C@H]12 (stereo not given in full) >= -10%?
Solution: T

###

- assay.explanation: qHTS of pediatric cancer cell lines to identify multiple opportunities for drug repurposing: Primary screen for control Hh wild type fibroblast cells (AID 1347106); also: nearly all actives have a fitted effect of over 55% in size
- conditions.used: Hh wild-type fibroblast viability, CellTiter-Glo luminescence, 48 h; series mostly up to 46 µM
Records with an inconclusive call do not appear. Active and inactive are the calls of the source. Calls come from the whole dose curve; as a rule, active = well fitted cell-killing curve with a large enough effect; inconclusive = small, poorly fitted or top-dose-only effect; inactive = flat fitted curve, though single readings scatter.
Lab note: assign the record to one of active, inactive

Worked set:
compound=O=C(NCc1ccccc1)[C@H](Cc1ccccc1)NC(=O)[C@@H]1O[C@@H]1C(=O)NCCc1ccc(O)cc1 assigned_class=inactive
compound="COC(=O)C1C2CC3c4[nH]c5cc(OC)ccc5c4CCN3CC2CC(OC(=O)c2cc(OC)c(OC)c(OC)c2)C1OC (centres undefined)" assigned_class=inactive
compound="CC(O)(C#Cc1ccc2c(c1)N(c1nc(N)ncc1Cl)CC2)c1nccs1 (centres undefined)" assigned_class=inactive
compound=O=C1NCCc2[nH]c(-c3ccncc3)cc21 assigned_class=inactive
compound=Cc1cnc(Nc2ccc(N3CCN(C)CC3)cc2)nc1Nc1cccc(S(=O)(=O)NC(C)(C)C)c1 assigned_class=active

Problem: Recorded call for O=C1NC(O)CCN1[C@@H]1O[C@H](CO)[C@H](O)[C@H]1O (some centres undefined) ?
Solution: inactive

Problem: Hi, do you know how `NC(=O)c1ncn([C@@H]2O[C@H](CO)[C@@H](O)[C@@H]2O)c1N` came out in this test?
Solution: inactive

Problem: In this assay, the call recorded for `C[C@H](O)[C@@H]1C(=O)N2C(C(=O)O)=C(S[C@@H]3CN[C@H](CNS(N)(=O)=O)C3)[C@@H](C)[C@@H]12` was what?
Solution: inactive

Problem: GET /call?item= CN1[C@H]2CC(OC(=O)[C@@H](CO)c3ccccc3)C[C@H]1[C@H]1O[C@H]12 (some centres undefined) returns the recorded outcome of this test.
Solution: inactive

###

- assay.explanation: qHTS of pediatric cancer cell lines to identify multiple opportunities for drug repurposing: Primary screen for RD cells (AID 1347104); also: nearly all actives have a fitted effect of over 55% in size
- conditions.used: RD rhabdomyosarcoma viability, CellTiter-Glo luminescence, 48 h; series mostly up to 46 µM
- Experimental: Drug repurposing or repositioning has been offered as a strategy for drug development in oncology programs. This approach has special potential for childhood cancers and other rare or orphan diseases, where the expected return on new drug development has been a disincentive to pharmaceuticals. […] We employed a titration-based paradigm (quantitative high-throughput screening or qHTS), where all compounds were tested at multiple concentrations for their effect on cell viability. […]
Inconclusive results are not listed. Activity calls are given as the source filed them. Calls come from the whole dose curve; as a rule, active = well fitted cell-killing curve with a large enough effect; inconclusive = small, poorly fitted or top-dose-only effect; inactive = flat fitted curve, though single readings scatter.
Field 'call' accepts active, inactive

Example cases with answers are listed next.
molecule="CCCCCCCN(CC)CCCC(O)c1ccc(NS(C)(=O)=O)cc1 (stereo not given)" assigned_class=inactive
molecule="Nc1ccn(C2CO[C@H](CO)O2)c(=O)n1 (stereo not given in full)" assigned_class=inactive
molecule=Cc1cc(O)c2c(c1)C(=O)c1cccc(O)c1C2=O assigned_class=inactive
molecule=CCOc1cc2ncc(C#N)c(Nc3ccc(OCc4ccccn4)c(Cl)c3)c2cc1NC(=O)C=CCN(C)C assigned_class=active
molecule=N#CC(=C(O)c1ccc(Cl)cc1Cl)c1nc2cc(Cl)ccc2c(=O)[nH]1 assigned_class=inactive
molecule=O=[N+]([O-])c1cn2c(n1)OC[C@@H](OCc1ccc(OC(F)(F)F)cc1)C2 assigned_class=inactive

Problem: # outcome recorded in this test, key = `CC(=O)OCC(=O)[C@@]1(O)CC[C@H]2[C@@H]3CCC4=CC(=O)CC[C@]4(C)[C@@H]3C(=O)C[C@@]21C`
Solution: inactive
